- measured on: UniProt P42680
- Sequence (P42680 1-631): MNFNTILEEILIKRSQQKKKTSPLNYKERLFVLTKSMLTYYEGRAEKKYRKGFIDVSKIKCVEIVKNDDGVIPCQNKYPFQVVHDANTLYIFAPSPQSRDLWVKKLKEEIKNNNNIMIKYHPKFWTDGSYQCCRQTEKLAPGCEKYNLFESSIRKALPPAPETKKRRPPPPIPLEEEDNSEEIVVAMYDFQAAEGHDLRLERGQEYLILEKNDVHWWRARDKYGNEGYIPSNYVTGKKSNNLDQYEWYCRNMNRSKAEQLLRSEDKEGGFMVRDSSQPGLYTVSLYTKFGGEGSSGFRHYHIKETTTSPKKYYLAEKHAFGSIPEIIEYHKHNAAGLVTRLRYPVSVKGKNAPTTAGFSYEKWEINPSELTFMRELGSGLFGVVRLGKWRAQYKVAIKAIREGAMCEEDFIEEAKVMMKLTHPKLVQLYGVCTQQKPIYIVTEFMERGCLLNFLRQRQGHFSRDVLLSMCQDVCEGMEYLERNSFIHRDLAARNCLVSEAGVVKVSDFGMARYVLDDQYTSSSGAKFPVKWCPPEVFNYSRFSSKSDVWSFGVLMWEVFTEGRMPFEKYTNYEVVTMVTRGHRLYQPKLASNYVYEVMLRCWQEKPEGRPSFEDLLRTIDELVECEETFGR
- method: Inhibition of a panel of kinases (in vitro HotSpot kinase assay, 33P-ATP, 1 μM ATP)
- Format: biochemical
- details: ratio of TEC IC50 to Btk IC50 (selectivity)
readout type: TEC/Btk

-- ask What is its TEC/Btk for UniProt P42680? Entry: CC(C)(C)c1ncc(C(=O)NCc2ccc(-c3ccnc4[nH]nc(N[C@H]5CC[C@H](O)CC5)c34)cc2F)o1 [Compound 39]
-- reply 74

I = C=CC(=O)N1C[C@H](Nc2n[nH]c3nccc(-c4ccc(CNC(=O)c5nc(C(C)(C)C)no5)c(F)c4)c23)CC[C@@H]1C [Example 148]
II = C[C@@H](NC(=O)c1nc(C(C)(C)C)no1)c1ccc(-c2ccnc3[nH]nc(N4CCC(N)CC4)c23)cc1F [Example 188]
III = C=CC(=O)N1CC[C@@H](Nc2n[nH]c3nccc(-c4ccc(CNC(=O)c5cnc(N(C)C)o5)c(F)c4)c23)C1 [Example 177]
IV = C=CC(=O)N1CC[C@@H](Nc2n[nH]c3nccc(-c4ccc(CNC(=O)c5ccc(C(=C)C)cc5)c(F)c4)c23)C1 [Compound 47]
V = C=CC(=O)N1CC[C@@H](Nc2n[nH]c3nccc(-c4ccc(CNC(=O)c5noc(C(C)(C)C)n5)c(F)c4)c23)C1 [Compound 3]
-- ask Endpoint returns the given molecules ordered by ascending TEC/Btk. Order the labels as requested and give them as your answer.
-- reply IV, III, V, I, II

---

- measured on: TEC (Homo sapiens, UniProt P42680)
readout type: IC50 (µM)

# count of solved cases: 5
-- ask May I ask what IC50 has been recorded for C=CC(=O)N[C@@H]1CCN(c2n[nH]c3nccc(-c4ccc(CNC(=O)c5cc(C(C)(C)C)on5)c(F)c4)c23)C1 [Example 308] ?
-- reply 0.047

-- ask May I ask what IC50 has been recorded for C[C@@H](NC(=O)c1nc(C(C)(C)C)no1)c1ccc(-c2ccnc3[nH]nc(N4CCC(NS(C)(=O)=O)CC4)c23)cc1 [Example 396] ?
-- reply 0.235

-- ask May I ask what IC50 has been recorded for C=CC(=O)N1CC[C@@H](Nc2n[nH]c3nccc(-c4ccc(CNC(=O)c5coc(C(C)(C)C)n5)c(F)c4)c23)C1 [Example 295] ?
-- reply 0.0455

-- ask May I ask what IC50 has been recorded for C=CC(=O)N1CC[C@@H](Nc2n[nH]c3nccc(-c4ccc(C5(NC(=O)c6nc(C(C)(C)C)no6)CC5)cc4)c23)C1 [Example 86] ?
-- reply 0.213

-- ask May I ask what IC50 has been recorded for CC(=O)N[C@@H]1CCN(c2n[nH]c3nccc(-c4ccc(CNC(=O)c5nc6ccccc6o5)c(F)c4)c23)C1 [Example 394] ?
-- reply 1.89

A = C=CC(=O)N1CC[C@@H](Nc2n[nH]c3nccc(-c4ccc(NC(=O)c5ccc(C(C)(C)C)cc5)c(F)c4)c23)C1 [Compound 45]
B = CN(C)C(=O)N[C@@H]1CCN(c2n[nH]c3nccc(-c4ccc(CNC(=O)c5noc(C(C)(C)C)n5)c(F)c4)c23)C1 [Example 132]
C = CC(=O)N[C@@H]1CCN(c2n[nH]c3nccc(-c4ccc(CNC(=O)c5ccc(C(C)(C)O)cn5)c(F)c4)c23)C1 [Example 424]
D = CC(=O)N[C@@H]1CCN(c2n[nH]c3nccc(-c4ccc(CNC(=O)c5nc(C(C)(C)C)no5)c(F)c4)c23)C1 [Example 373]
E = C[C@H]1CC[C@@H](Nc2n[nH]c3nccc(-c4ccc(CNC(=O)c5cc(C(C)(C)C)on5)c(F)c4)c23)CN1 [Example 144]
-- ask Returns the items ordered by IC50, from maximum to minimum. Order the labels as requested and give them as your answer.
-- reply C, A, E, B, D

I = CC(=O)N1CC[C@H](Oc2n[nH]c3nccc(-c4ccc(CNC(=O)c5nc(C(C)(C)C)no5)c(F)c4)c23)C1 [Example 284]
II = C=CC(=O)N1CC[C@@H](Nc2n[nH]c3nccc(-c4ccc([C@H](C)NC(=O)c5noc(C(C)(C)C)n5)cc4)c23)C1 [Example 95]
-- ask From the items above, decide which of I and II has the lower IC50 reading. Indicate which entry you chose by stating its label.
-- reply II
(II: 0.924 µM, I: 2.25 µM)

a = CC(C)(C)c1nc(C(=O)NC2(c3ccc(-c4ccnc5[nH]nc(NC6CCCN(C=O)C6)c45)cc3)CC2)no1 (stereo not shown) [Example 271]
b = C=CC(=O)N1CC[C@@H](Nc2n[nH]c3nccc(-c4ccc(CNC(=O)c5cn6c(C)cccc6n5)c(F)c4)c23)C1 [Example 390]
-- ask From the items above, decide which of a and b has the lower IC50 reading. Indicate which entry you chose by stating its label.
-- reply b
(b: 0.713 µM, a: 5.87 µM)
